Listed molecules paired with reported pEC50
Experiment: Lactate dehydrogenase (LDH) release assay
Assay type: cell-based
Details: LDH: Cytotoxicity assay: EC50
pEC50: −log10 of the molar value. Positions of bridges follow the written chain, without caps; N, C: chain ends. Non-standard residues stand in square brackets, D forms with d. Residues, ends and D or L forms follow the SMILES beside them. Lys(N3) = [N-]=[N+]=NCCCC[C@H](N)C(=O)O; R8 = C=CCCCCCC[C@@](C)(N)C(=O)O; Cba = N[C@@H](CC1CCC1)C(=O)O; S5 = C=CCCC[C@](C)(N)C(=O)O; βAla = NCCC(=O)O
MEASURED PROPERTY: pEC50

# MOLECULE, MEASURED PROPERTY, VALUE PREFIX, DATA VALUE
data = [
    ("CC(=O)N[C@@H](CCCCN=[N+]=[N-])C(=O)NCCC(=O)N[C@@H](CC(C)C)C(=O)N[C@H](C(=O)N[C@@H](Cc1ccccc1)C(=O)N[C@]1(C)CCCCCCC=CCCC[C@@](C)(C(N)=O)NC(=O)[C@H](CC2CCC2)NC(=O)[C@H](CCC(N)=O)NC(=O)[C@H](C)NC(=O)[C@H](Cc2c[nH]c3ccccc23)NC(=O)[C@H](Cc2ccc(O)cc2)NC(=O)[C@H](CCC(=O)O)NC1=O)[C@@H](C)O [MP-326] (Ac-[Lys(N3)][βAla]LTF[R8]EYWAQ[Cba][S5]-NH2; staple 6-13)", "pEC50", "=", 4.61),
    ("CC(=O)N[C@H](C)C(=O)N[C@H](C)C(=O)N[C@H](C)C(=O)N[C@H](C)C(=O)N[C@@H](CC(C)C)C(=O)N[C@H](C(=O)N[C@@H](Cc1ccccc1)C(=O)N[C@]1(C)CCCCCCC=CCCC[C@@](C)(C(=O)N[C@@H](CO)C(=O)N[C@@H](C)C(=O)N[C@@H](C)C(N)=O)NC(=O)[C@H](CC2CCC2)NC(=O)[C@H](CCC(N)=O)NC(=O)[C@H](C)NC(=O)[C@H](Cc2c[nH]c3ccccc23)NC(=O)[C@H](Cc2ccc(O)cc2)NC(=O)[C@H](CCC(=O)O)NC1=O)[C@@H](C)O [MP-365]", "pEC50", "<", 4.30),
]
